- Tested on: Ruminococcus gnavus DSM 108212
- Test name: growth (OD595) fold change vs plate DMSO controls (fold change (ratio)); higher = more growth
- Experimental parameters: incubation time: 27 h, anaerobic, 37 °C
Counter-ions that a name gives are not always drawn.
Mark condition not met for growth values under 0.8, and condition met for everything at or above.

// known answers, use as guide
Compound	Class label
C=CCN1CCCC1CNC(=O)c1cc2nn[nH]c2cc1OC (stereo unspecified) [Alizapride hydrochloride] (20 µM)	condition met
C[C@@H]1C[C@H]2[C@@H]3C[C@H](F)C4=CC(=O)C=C[C@]4(C)[C@@]3(Cl)[C@@H](O)C[C@]2(C)[C@H]1C(=O)COC(=O)C(C)(C)C [Clocortolone pivalate] (20 µM)	condition met

Query: Is reported growth greater than or equal to 0.8 here: CC(NCCc1ccc(O)cc1)C(O)c1ccc(O)cc1 (stereo unspecified) [Ritodrine hydrochloride] (20 µM)
Result: condition not met

Query: Reported growth reaches at least 0.8 for CC(C)NCC(O)c1ccc(O)c(O)c1 (single isomer, unassigned; (+)) [(+) Isoproterenol-(+)-bitartrate salt] (20 µM) ?
Result: condition met

Query: Could you please find out whether CO[C@@]1(NC(=O)C(C(=O)O)c2ccc(O)cc2)C(=O)N2C(C(=O)O)=C(CSc3nnnn3C)CO[C@@H]21 (stereo partly specified) [Moxalactam disodium salt] (20 µM) has growth that meets 0.8 or exceeds it?
Result: condition not met

----------
- Test system: Klebsiella aerogenes DSM 30053
- Test name: growth (OD595) fold change vs plate DMSO controls (fold change (ratio)); higher = more growth
- Experimental parameters: incubation time: 27 h, anaerobic, 37 °C
Counter-ions that a name gives are not always drawn.
Assay endpoint: growth
Answer with the value's number alone.

These recorded examples may help you get a feel for the data.
Compound	Readout number
Cc1ncc(CO)c(CO)c1O [Pyridoxine hydrochloride] (20 µM)	1.06
CCC1=C(C)CN(C(=O)NCCc2ccc(S(=O)(=O)NC(=O)N[C@H]3CC[C@H](C)CC3)cc2)C1=O [Glimepiride] (20 µM)	1.02
Oc1c(Cl)cc(Cl)c2cccnc12 [Chloroxine] (20 µM)	1.02
CC(C)OC(=O)C(C)(C)Oc1ccc(C(=O)c2ccc(Cl)cc2)cc1 [Fenofibrate] (20 µM)	1.04
Oc1ccccc1O [Catechol] (20 µM)	0.966
OC[C@H]1O[C@@](CO)(O[C@H]2O[C@H](CO)[C@@H](O)[C@H](O)[C@H]2O)[C@@H](O)[C@@H]1O [Sucrose] (50 µM)	1.09
CCn1cc(C(=O)O)c(=O)c2cc(F)c(N3CCNC(C)C3)c(F)c21 (stereo not drawn) [Lomefloxacin hydrochloride] (20 µM)	0.252

Measured growth, Cc1nn(C)c(Oc2ccccc2)c1/C=N/OCc1ccc(C(=O)OC(C)(C)C)cc1 (20 µM) : 1.02

----------
- System: Klebsiella aerogenes DSM 30053
- Test name: fold change of Histamine concentration vs plate DMSO controls (fold change (ratio)); higher = more amine produced, active = hit call of the paper (significant change in both replicates, either direction)
- Experimental parameters: incubation time: 27 h, anaerobic, 37 °C
Where a name gives a salt, the structure may show the parent alone.
Assay endpoint: fold change of Histamine concentration
Output: the number by itself.

Molecule	System under test	fold change of Histamine concentration
CN(C)CCN(Cc1ccc(Cl)cc1)c1ccccn1 [Chloropyramine hydrochloride] (20 µM)	Klebsiella aerogenes DSM 30053	0.98
O=C1NCCN1CCN1CCC(c2cn(-c3ccc(F)cc3)c3ccc(Cl)cc23)CC1 [Sertindole] (20 µM)	Klebsiella aerogenes DSM 30053	0.923
NCc1ccc(S(N)(=O)=O)cc1 [Mafenide hydrochloride] (20 µM)	Klebsiella aerogenes DSM 30053	1.08

Pending molecule:
Query COc1ccc([C@@H]2CC(=O)c3c(O)cc(O[C@@H]4O[C@H](CO[C@@H]5O[C@@H](C)[C@H](O)[C@@H](O)[C@H]5O)[C@@H](O)[C@H](O)[C@H]4O)cc3O2)cc1O [Hesperidin] (20 µM) yields fold change of Histamine concentration of 0.921

----------
Below, each of the compounds is paired with its reported growth value.
- Test system: Ruminococcus gnavus DSM 108212
- Test name: growth (OD595) fold change vs plate DMSO controls (fold change (ratio)); higher = more growth
- Experimental parameters: incubation time: 27 h, anaerobic, 37 °C
Counter-ions that a name gives are not always drawn.

Compound	growth
NC(CO)C(=O)NNCc1ccc(O)c(O)c1O (configuration not stated) [Benserazide hydrochloride] (20 µM)	0.988
CC(C)C(=O)Nc1ccc([N+](=O)[O-])c(C(F)(F)F)c1 [Flutamide] (20 µM)	1.32
S=c1[nH]cnc2nc[nH]c12 [Mercaptopurine] (20 µM)	0.869

c1ccc2c(c1)CCCC2C1=NCCN1 (configuration not stated) [Tetrahydrozoline hydrochloride] (20 µM) yielded growth of 0.897

Kindly note the recorded growth for CCCNCC(O)COc1ccccc1C(=O)CCc1ccccc1 (configuration not stated) [Propafenone hydrochloride] (20 µM) , which is 0.759

Looking up Cc1cc2nc3ccc(=[N+](C)C)cc-3sc2cc1N [Tolonium chloride] (20 µM) , I see its growth listed as 0.0958

Given item O=P(O)(O)C(Cl)(Cl)P(=O)(O)O [Clodronate disodium] (20 µM) , the value recorded as its growth is 1.09

Per the record, Oc1c(I)cc(Cl)c2cccnc12 [Clioquinol] (20 µM) has growth of 0.671

In plain terms, COc1cc(NS(=O)(=O)c2ccc(N)cc2)nc(OC)n1 [Sulfadimethoxine] (20 µM) has a documented growth of 1.01

Memo: COc1ccc(CN2CCN(C(c3ccc(F)cc3)c3ccc(F)cc3)CC2)c(OC)c1OC [Lomerizine dihydrochloride] (20 µM) , reported growth: 0.769

For O=C1c2cccc(O)c2C(=O)c2c(O)cccc21 [Danthron] (20 µM) the compound record lists growth as 0.841

----------
- Tested on: Ruminococcus gnavus DSM 108212
- Test name: growth (OD595) fold change vs plate DMSO controls (fold change (ratio)); higher = more growth
- Experimental parameters: incubation time: 27 h, anaerobic, 37 °C
Counter-ions that a name gives are not always drawn.
This section presents compounds with their documented growth values.
Lab note: write the figure by itself, no unit.

Use the examples below as a reference point.
Compound	System under test	Readout number
N=C(N)c1ccc(OCCCCCOc2ccc(C(=N)N)cc2)cc1 [Pentamidine isethionate] (20 µM)	Ruminococcus gnavus DSM 108212	1.35
COCC(=O)Nc1c(I)c(C(=O)NCC(O)CO)c(I)c(C(=O)N(C)CC(O)CO)c1I (stereo not drawn) [Iopromide] (20 µM)	Ruminococcus gnavus DSM 108212	1.02
C[C@H](O)C(=O)Nc1c(I)c(C(=O)NC(CO)CO)c(I)c(C(=O)NC(CO)CO)c1I [Iopamidol] (20 µM)	Ruminococcus gnavus DSM 108212	1.25

According to the records, this compound CO/N=C(\C(=O)N[C@@H]1C(=O)N2C(C(=O)O)=C(COC(N)=O)CS[C@H]12)c1ccco1 [Cefuroxime sodium salt] (20 µM) displays growth of 0.229

Value of growth reported for the compound COc1cc(-c2ccc(=O)[nH]n2)ccc1OC(F)F [Zardaverine] (20 µM) is 0.984

----------
- System: Clostridium sporogenes DSM 1664
- Test name: growth (OD595) fold change vs plate DMSO controls (fold change (ratio)); higher = more growth
- Experimental parameters: incubation time: 27 h, anaerobic, 37 °C
Where a name gives a salt, the structure may show the parent alone.
Assay endpoint: growth
When you answer, write just the number.

Reference set (5 entries):
Compound	System under test	growth
O=C(O)c1ccccc1OP(=O)(O)O [Fosfosal] (20 µM)	Clostridium sporogenes DSM 1664	0.91
CC(=O)OCC(=O)[C@@]1(O)CC[C@H]2[C@@H]3CCC4=CC(=O)C=C[C@]4(C)[C@@]3(F)[C@@H](O)C[C@@]21C [Isoflupredone acetate] (20 µM)	Clostridium sporogenes DSM 1664	0.985
CCCCN(CCCC)CCC(O)c1cc2c(Cl)cc(Cl)cc2c2cc(C(F)(F)F)ccc12 (stereo not given) [Halofantrine hydrochloride] (20 µM)	Clostridium sporogenes DSM 1664	1.1
c1cc2ccc3ccc4ccc5cccc6c(c1)c2c3c4c56 [Benzo-[g,h,i]perylene] (20 µM)	Clostridium sporogenes DSM 1664	0.921
Nc1nc(=O)[nH]cc1F [Flucytosine] (20 µM)	Clostridium sporogenes DSM 1664	1.01

Reported Clostridium sporogenes DSM 1664 growth for item CC1(C)S[C@@H]2[C@H](NC(=O)C3(N)CCCCC3)C(=O)N2[C@H]1C(=O)O [Cyclacillin] (20 µM) was 0

The recorded growth with Clostridium sporogenes DSM 1664 for c1coc(CNc2ncnc3[nH]cnc23)c1 [Kinetin] (20 µM) was 0.818

Fill in: Clostridium sporogenes DSM 1664 growth for CC/C(=C(\c1ccccc1)c1ccc(OCCN(C)C)cc1)c1ccccc1 [Tamoxifen citrate] (20 µM) = 1.11

Response field growth (Clostridium sporogenes DSM 1664) for item CCn1cc(C(=O)O)c(=O)c2cnc(N3CCCC3)nc21 [Piromidic acid] (20 µM) : 1.09

Entry CCCNC(=O)NS(=O)(=O)c1ccc(Cl)cc1 [Chlorpropamide] (20 µM) , tested on Clostridium sporogenes DSM 1664, has a reported growth of 0.913
